System: MS2 coat protein
ASSAY PROCEDURE: apparent Kd, MS2 coat protein; higher = weaker binding; RNA-MaP array; FMN 200 µM where present
CONDITION SET: ligand present: flavin mononucleotide; designed as: OFF switch for flavin mononucleotide
OUTCOME MEASURE: apparent Kd (nM)
Expressed in nM, but write only the number.

# BIOPOLYMER SEQUENCE, TARGET OR SYSTEM, OUTCOME MEASURE, TEST VALUE
measured = [
    ("CGUGCUUAUGUAGGAUAUGGUUAUCUAUGUCUAGUUACUAGACAUAGAUAACCAGAAGGACAUGAGGAUCACCCAUGUUGCACG", "MS2 coat protein", "apparent Kd", 15.5),
]

Identify apparent Kd associated with the sequence "UAAUAAUAAUAAUAAUCCUGCAUACAUGAGGAUCACCCAUGUAAGGAUAUCGUCAGGAAUACUGACGAGAAGGUACAUAGCAGG"
19.3

Identify apparent Kd associated with the sequence "CAGCAAAAGUAGAAGGCAGUACUGAUUCAGUACUGAGGAUAUACAUGAGGAUCACCCAUGUAAUAUAGCUGAAUAAUAUAUUAU"
7.56

Identify apparent Kd associated with the sequence "GUGUAGAGAGGAUAUACAUGAGGAUCACCCAUGUGAAUAAGAUAGAAUAAGAUAAAGUGUAGAAGGUUUAGUGU"
34.2

---

Test system: MS2 coat protein
ASSAY PROCEDURE: apparent Kd, MS2 coat protein; higher = weaker binding; RNA-MaP array; FMN 200 µM where present
CONDITION SET: designed as: OFF switch for flavin mononucleotide; no ligand
Measured apparent Kd, listed per entry.
Expressed in nM, but write only the number.

In the examples that follow, each entry is paired with its recorded apparent Kd.
# BIOPOLYMER SEQUENCE, READING UNIT, apparent Kd
data = [
    ("UAUAUAUAGUAAGGAUAUGUAAUUAUUUAAUAAACAGAAGGUACUGACAUGAGGAUCACCCAUGUUUUAGUGUGGGCAUGUAGA", "nM", 80.5),
    ("AAUGUUGGAGGAUAUACGCGAGUGCUCAGUUGGCCCGGUCGACAUGAGGAUCACCCAUGUAGAAGGCCGACGCU", "nM", 14.4),
    ("AAAUAGUUAGGAUAUACAUGAGGAUCACCCAUGUGGACUGAUGGCGCUUGAUUCAGUGGUAGAAGGGACUCAAA", "nM", 45.9),
    ("GUGAGACAUGAGGAUCACCCAUGUCAGGAUAUGAUACUAUGUACUUCGGUACAUAGUAUCAGAAGGGACAGUGA", "nM", 53.6),
    ("UAUUAAUGCAAGGAUAUGCUUUUAAUUUUUUUUGCAGAAGGUGCAACAUGAGGAUCACCCAUGUUUCAGGGUAU", "nM", 42.1),
]

Identify apparent Kd associated with the sequence "AAUAUGAGCUGGUAUAAAUCCGAAACAUGAGGAUCACCCAUGUAGGAUAUCAGCACGAUAAGUGCUGAGAAGGACAUCCAGCUC"
15.2

Identify apparent Kd associated with the sequence "AAGAAGUGAGGAUAUACGCGAACAAAAAAAAAAAAGAAAGCGUAGAAGGCACAUGAGGAUCACCCAUGUCAAAA"
26.1

Identify apparent Kd associated with the sequence "GCAUAUCAGGGAGGAUAUGACAUGAGGAUCACCCAUGUAAUUAUGGCUCUGUCAGAAGGCCCAUCGUCACUAUAGUGACGAGAC"
370

Identify apparent Kd associated with the sequence "GUUUAGUGAGGAUAUGUGGCUUCGAUCGUGCGAGGGCGGCUACAGAAGGCACAUGAGGAUCACCCAUGUUCCUC"
155

Identify apparent Kd associated with the sequence "GUCCGGAGGGAGAAGGGCUAGGAGGUCCAGCUUAUGUGUGUUGCAACAUGAGGAUCACCCAUGUAGCAGGAUAUCCCUUUUACA"
47

---

Test system: MS2 coat protein
ASSAY PROCEDURE: apparent Kd, MS2 coat protein; higher = weaker binding; RNA-MaP array
CONDITION SET: ligand present: flavin mononucleotide; designed as: OFF switch for flavin mononucleotide
Measured apparent Kd, listed per entry.
Expressed in nM, but write only the number.

In the examples that follow, each entry is paired with its recorded apparent Kd.
# BIOPOLYMER SEQUENCE, TEST VALUE
measured = [
    ("AACGGUGCGCGAGGAUAUCACGUACCAAGAGGAUGAGAAGGCGCGCGUACAGGUUGGUGAACAUGAGGAUCACCCAUGUGGUAC", 87.2),
    ("UGUACAUGAGGAUCACCCAUGUUUGUAUCUUUAUCCGCGCGCAGAAGGUAGCCCAUGGAGACAGCUAAGGAUAUGCGUCACAUA", 8.83),
    ("UCUAUACAUGAGGAUCACCCAUGUCAGGAUAUAAGCACCGGGCGAUUGUCACGCGGCCUUAGAAGGGACAGGAA", 28.8),
    ("UAGCUGCUUCAGAAGGCCGUUGGGUGAAAACGCUCCGGGUGCCACAUGAGGAUCACCCAUGUUUCGGAGGAUAUGAAAGCAUCC", 201),
    ("UCGUUGCCAUGAGGAUAUCGUGUCAAGACAGGCAAGUGACCGUACAUGAGGAUCACCCAUGUAAACGAGAAGGCAUAGUCAUGG", 13.9),
    ("ACCCGAGAUACAGGAUAUGCGUCCGCGUGAGCCAUGGUUAAAGCACAUGAGGAUCACCCAUGUUGGCAGAAGGGAAUCUCAUGA", 19.3),
    ("GCACAAUUAGGAUAUACAUGGGUAUAGGGUGAGACGAAUGCACAUGAGGAUCACCCAUGUAGAAGGAAUCGUCA", 332),
    ("CUCAAACAUGAGGAUCACCCAUGUAAGGAUAUCCGUAAUAAAUUUGGUAAGAGGCGGCGGAGAAGGUACGCAGC", 17.9),
]

Give the observed apparent Kd of "GCUCAUUGCGAGGAUAUUGGAAGAGUGUAAACUCAAGAAGGCGCAACAUGAGGAUCACCCAUGUGAACCCAAAU" for MS2 coat protein.
14

Give the observed apparent Kd of "CGUUAGACAGGAUAUACACUGGGAAGCGCGGUUUGCGGGAGACAUGAGGAUCACCCAUGUAGAAGGGUCCGGCA" for MS2 coat protein.
9.4

Give the observed apparent Kd of "AUCAUGUAAGGAUAUGCCGAACCUGUUUUGUCGCGGUUAAAGCAGAAGGUACAUGAGGAUCACCCAUGUUAAAU" for MS2 coat protein.
54.4

Give the observed apparent Kd of "GGAUGGGUGGAAGGAUAUGAGCCCAGGACAUGAGGAUCACCCAUGUGUAGUUCAGUCUCUAAUUCUCAGAAGGUCCAGAUUCUA" for MS2 coat protein.
21.5

Give the observed apparent Kd of "AGUUAACCGGGUGUUCUACAUGAGGAUCACCCAUGUACACUCAGAAGGCUCGAAUCUAGGGAUGGAGAGGAUAUGAAAACUGAU" for MS2 coat protein.
36.5

Give the observed apparent Kd of "CCGUAUCCGUAGGAUAUCGACACGAGUCACGUGCGAGAAGGACGGACAUGAGGAUCACCCAUGUAUGCUUCGUG" for MS2 coat protein.
48.4

Give the observed apparent Kd of "CGUGUAGGGUAGGAUAUUCGAACACCACAAGGAGAAGAAGGACCUACAUGAGGAUCACCCAUGUGGUUAAUGGC" for MS2 coat protein.
225

Give the observed apparent Kd of "GCUCACAUGAGGAUCACCCAUGUCACGAGGUGAUGAUGAACAAGAAGGAAACUCAUAUGAUCAGUUUAGGAUAUUGCCCAGCGA" for MS2 coat protein.
460

Give the observed apparent Kd of "UUUUUUUAACAGAAGGACAGACAUAUGAGGGACAUGAGGAUCACCCAUGUGUGCUCGCGUAGGCUGUAGGAUAUGUAGUGCUGG" for MS2 coat protein.
8.19

Give the observed apparent Kd of "CAUUGGGUCAGUUCGACAUGAGGAUCACCCAUGUAGUUAACGAGAAGGAGUACCAGCCUAAGUGACUAGGAUAUCGAUAAGUGG" for MS2 coat protein.
38.7

Give the observed apparent Kd of "AACGGUUUUUAGAAGGGCGUCAGGGACCUUGGACAUGAGGAUCACCCAUGUGUGCAGACACCUGCGCAGGAUAUAAGUUCUCUA" for MS2 coat protein.
9.53

Give the observed apparent Kd of "UAUUGUAUAGGAUAUACAUGAGGAUCACCCAUGUUCGAUGUUUGGAGCCUGCUUCAUAGUAGAAGGAUACGCCC" for MS2 coat protein.
16.7

Give the observed apparent Kd of "GAAAGAUGAGGAUAUACAUGAGGAUCACCCAUGUGAUUAAAUUGAACACCGAAUUACUGUAGAAGGCAUAAACC" for MS2 coat protein.
16.8

Give the observed apparent Kd of "CGUCUACAUGAGGAUCACCCAUGUCAGGAUAUACACCAACAACCUUCGCGAGAUAGGUGUAGAAGGGACGGGUA" for MS2 coat protein.
13.5

Give the observed apparent Kd of "UCUAUGUUAGGAUAUCUGUUGCAUGCCUGGCCGCGAUGCAAAGAGAAGGAACAUGAGGAUCACCCAUGUCAUAU" for MS2 coat protein.
41.6

Give the observed apparent Kd of "AAAACUACAGAUACCUUAACAUGAGGAUCACCCAUGUGAGCUGAGGAUAUGUCCACGCUUUAAGGACAGAAGGCAGGAGCAUAG" for MS2 coat protein.
36.9

Give the observed apparent Kd of "GGGCGACUGCAAGGAUAUCUCGAAGUGAGUGGCAGAGAAGGUGCACGUACAUGAGGAUCACCCAUGUGAACUUAUUGGUCAAGG" for MS2 coat protein.
21.9

Give the observed apparent Kd of "GUUGAGGGCGUGCACAUGAGGAUCACCCAUGUUCUACCUAUCGAGGAUAUAUCUGUAGGAUCAGAAUAGAAGGCGAGCAAGGUC" for MS2 coat protein.
14.8

Give the observed apparent Kd of "CAUGUACUAGGAUAUACAAUCACUCGUCAGGCAGCGUUAACACAUGAGGAUCACCCAUGUAGAAGGAGUUUAAA" for MS2 coat protein.
8.2

Give the observed apparent Kd of "ACUGGUUCGGUUGUCACACAUGAGGAUCACCCAUGUAAGGUAGAGGAUAUCGCUCCGUCCUUCGGCGAGAAGGCUAUUCGACGC" for MS2 coat protein.
10.3

Give the observed apparent Kd of "ACUGAGUAAGGAUAUCCAUCAUACUAACGACGCGGAAAGAAGGAGAAGGUACAUGAGGAUCACCCAUGUGAAAA" for MS2 coat protein.
11.1
